B1: Azoarcus group I ribozyme (parent)
chain: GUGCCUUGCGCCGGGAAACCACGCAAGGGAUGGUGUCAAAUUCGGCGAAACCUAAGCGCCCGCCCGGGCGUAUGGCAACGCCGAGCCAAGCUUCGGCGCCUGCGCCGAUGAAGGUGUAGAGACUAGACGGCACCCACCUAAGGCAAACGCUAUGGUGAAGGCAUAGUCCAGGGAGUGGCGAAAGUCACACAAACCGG

Variants of: B1
protocol_text: reverse-splicing fitness (ratio to wild type); higher = more active; in vitro selection; Mg2+ level not given
Listing of entries alongside the reported reverse-splicing fitness.
Kindly provide the number alone.

[
  {
    "alteration": "A111C A120U A145G U176A",
    "reverse-splicing fitness": 0.221
  },
  {
    "alteration": "A111G A120U A145U C169U U176A",
    "reverse-splicing fitness": 0.0203
  },
  {
    "alteration": "A120C A145G C150G C169U U176C",
    "reverse-splicing fitness": 0.0406
  },
  {
    "alteration": "A111C A145C C150G U176C",
    "reverse-splicing fitness": 0.13
  },
  {
    "alteration": "C82G A111G A120C C150A U176A",
    "reverse-splicing fitness": 0.014
  }
]

Please give the documented reverse-splicing fitness of A111G A120U C150G C169A U176G
0.00246

Please give the documented reverse-splicing fitness of C82G A111G A120C A145G C150G C169A U176A
0.0153

Please give the documented reverse-splicing fitness of C82A A120C A145U C169U U176C
0.0114
